Reported relative viability values follow for various compounds
# Test system: NCI-H1666
# assayDetails: relative viability (nuclei count vs DMSO), 5 days (fraction); higher = more cells survive
# conditionSet: first compound 500 µM
parameterMeasured: relative viability

- compound: "O=C(O)CCCCC(CCSCc1ccccc1)SCc1ccccc1 (configuration not stated) [CPI-613] + CC1(C)CCC(c2ccc(Cl)cc2)=C(CN2CCN(c3ccc(C(=O)NS(=O)(=O)c4ccc(N[C@H](CCN5CCOCC5)CSc5ccccc5)c(S(=O)(=O)C(F)(F)F)c4)cc3)CC2)C1 [Navitoclax] (partner 0.5 µM)"
  testValue: 0.212
- compound: "O=C(O)CCCCC(CCSCc1ccccc1)SCc1ccccc1 (configuration not stated) [CPI-613] + C[C@]1(O)C[C@@H](c2nc(-c3ccc4ccc(-c5ccccc5)nc4c3)c3c(N)nccn32)C1 [Linsitinib] (partner 1 µM)"
  testValue: 0.167
- compound: "O=C(O)CCCCC(CCSCc1ccccc1)SCc1ccccc1 (configuration not stated) [CPI-613] + CC(C)C[C@H](NC(=O)[C@H](Cc1ccccc1)NC(=O)c1cnccn1)B(O)O [Bortezomib] (partner 0.002 µM)"
  testValue: 0.0891
- compound: "O=C(O)CCCCC(CCSCc1ccccc1)SCc1ccccc1 (configuration not stated) [CPI-613] + COc1cc2c(Oc3ccc(NC(=O)C4(C(=O)Nc5ccc(F)cc5)CC4)cc3F)ccnc2cc1OCCCN1CCOCC1 [Foretinib] (partner 0.25 µM)"
  testValue: 0.206
- compound: "O=C(O)CCCCC(CCSCc1ccccc1)SCc1ccccc1 (configuration not stated) [CPI-613] + Nc1nc2[nH]cc(CCc3ccc(C(=O)N[C@@H](CCC(=O)O)C(=O)O)cc3)c2c(=O)[nH]1 [Pemetrexed] (partner 0.2 µM)"
  testValue: 0.471
- compound: "O=C(O)CCCCC(CCSCc1ccccc1)SCc1ccccc1 (configuration not stated) [CPI-613] + Cc1cc(Nc2cc(N3CCN(C)CC3)nc(Sc3ccc(NC(=O)C4CC4)cc3)n2)n[nH]1 [Tozasertib] (partner 0.1 µM)"
  testValue: 0.155
- compound: "O=C(O)CCCCC(CCSCc1ccccc1)SCc1ccccc1 (configuration not stated) [CPI-613] + Cc1nc(NC(=O)N2CCC[C@H]2C(N)=O)sc1-c1ccnc(C(C)(C)C(F)(F)F)c1 [Alpelisib] (partner 2 µM)"
  testValue: 0.138

---

Quick list: relative viability per entry.
# Test system: NCI-H23
# assayDetails: relative viability (nuclei count vs DMSO), 5 days (fraction); higher = more cells survive
# conditionSet: first compound 0.1581 µM

- compound: "COc1cc2nccc(Oc3ccc(NC(=O)Nc4cc(C)on4)c(Cl)c3)c2cc1OC [Tivozanib] + CS(=O)(=O)N1CCN(Cc2cc3nc(-c4cccc5[nH]ncc45)nc(N4CCOCC4)c3s2)CC1 [Pictilisib] (partner 1 µM)"
  relative viability: 0.319
- compound: "COc1cc2nccc(Oc3ccc(NC(=O)Nc4cc(C)on4)c(Cl)c3)c2cc1OC [Tivozanib] + CC(C)C[C@H](NC(=O)[C@H](Cc1ccccc1)NC(=O)c1cnccn1)B(O)O [Bortezomib] (partner 0.002 µM)"
  relative viability: 0.785
- compound: "Nc1ccn([C@@H]2O[C@H](CO)[C@@H](O)[C@@H]2O)c(=O)n1 [Cytarabine] + Nc1ncn([C@H]2C[C@H](O)[C@@H](CO)O2)c(=O)n1 [Decitabine] (partner 2 µM)"
  relative viability: 0.195
- compound: "Nc1ccn([C@@H]2O[C@H](CO)[C@@H](O)[C@@H]2O)c(=O)n1 [Cytarabine] + COc1cccc2cc(-c3nc([C@H]4CC[C@H](C(=O)O)CC4)n4ncnc(N)c34)[nH]c12 [OSI-027] (partner 0.5 µM)"
  relative viability: 0.272
- compound: "Nc1ccn([C@@H]2O[C@H](CO)[C@@H](O)[C@@H]2O)c(=O)n1 [Cytarabine] + O=C(CCCCCCC(=O)Nc1ccccc1)NO [Vorinostat] (partner 1 µM)"
  relative viability: 0.156
- compound: "Nc1ccn([C@@H]2O[C@H](CO)[C@@H](O)[C@@H]2O)c(=O)n1 [Cytarabine] + Cc1nc(Nc2ncc(C(=O)Nc3c(C)cccc3Cl)s2)cc(N2CCN(CCO)CC2)n1 [Dasatinib] (partner 0.075 µM)"
  relative viability: 0.236

---

Item-by-item account of relative viability
# System: HCC-827
# assayDetails: relative viability (nuclei count vs DMSO), 5 days (fraction); higher = more cells survive
# conditionSet: first compound 0.5 µM
parameterMeasured: relative viability

- compound: "COc1cc2nccc(Oc3ccc(NC(=O)Nc4cc(C)on4)c(Cl)c3)c2cc1OC [Tivozanib] + Cc1nc(Nc2ncc(C(=O)Nc3c(C)cccc3Cl)s2)cc(N2CCN(CCO)CC2)n1 [Dasatinib] (partner 0.075 µM)"
  parameterMeasured: "relative viability"
  testValue: 0.231
- compound: "COc1cc2nccc(Oc3ccc(NC(=O)Nc4cc(C)on4)c(Cl)c3)c2cc1OC [Tivozanib] + Cc1nc(NC(=O)N2CCC[C@H]2C(N)=O)sc1-c1ccnc(C(C)(C)C(F)(F)F)c1 [Alpelisib] (partner 2 µM)"
  parameterMeasured: "relative viability"
  testValue: 1.02
- compound: "Nc1ccn([C@@H]2O[C@H](CO)[C@@H](O)[C@@H]2O)c(=O)n1 [Cytarabine] + Nc1ncn([C@H]2C[C@H](O)[C@@H](CO)O2)c(=O)n1 [Decitabine] (partner 2 µM)"
  parameterMeasured: "relative viability"
  testValue: 0.167
- compound: "COc1cc2nccc(Oc3ccc(NC(=O)Nc4cc(C)on4)c(Cl)c3)c2cc1OC [Tivozanib] + O=C(c1cc(Cc2n[nH]c(=O)c3ccccc23)ccc1F)N1CCN(C(=O)C2CC2)CC1 [Olaparib] (partner 8 µM)"
  parameterMeasured: "relative viability"
  testValue: 0.623
- compound: "COc1cc2nccc(Oc3ccc(NC(=O)Nc4cc(C)on4)c(Cl)c3)c2cc1OC [Tivozanib] + COc1cc2c(Oc3ccc(NC(=O)C4(C(=O)Nc5ccc(F)cc5)CC4)cc3F)ccnc2cc1OCCCN1CCOCC1 [Foretinib] (partner 0.25 µM)"
  parameterMeasured: "relative viability"
  testValue: 1.01
- compound: "Nc1ccn([C@@H]2O[C@H](CO)[C@@H](O)[C@@H]2O)c(=O)n1 [Cytarabine] + COc1cc2c(Oc3ccc(NC(=O)C4(C(=O)Nc5ccc(F)cc5)CC4)cc3F)ccnc2cc1OCCCN1CCOCC1 [Foretinib] (partner 0.25 µM)"
  parameterMeasured: "relative viability"
  testValue: 0.177
- compound: "Nc1ccn([C@@H]2O[C@H](CO)[C@@H](O)[C@@H]2O)c(=O)n1 [Cytarabine] + CS(=O)(=O)N1CCN(Cc2cc3nc(-c4cccc5[nH]ncc45)nc(N4CCOCC4)c3s2)CC1 [Pictilisib] (partner 1 µM)"
  parameterMeasured: "relative viability"
  testValue: 0.408
- compound: "COc1cc2nccc(Oc3ccc(NC(=O)Nc4cc(C)on4)c(Cl)c3)c2cc1OC [Tivozanib] + CC(C)C[C@H](NC(=O)[C@H](Cc1ccccc1)NC(=O)c1cnccn1)B(O)O [Bortezomib] (partner 0.002 µM)"
  parameterMeasured: "relative viability"
  testValue: 1.03
- compound: "Nc1ccn([C@@H]2O[C@H](CO)[C@@H](O)[C@@H]2O)c(=O)n1 [Cytarabine] + CC1(C)CCC(c2ccc(Cl)cc2)=C(CN2CCN(c3ccc(C(=O)NS(=O)(=O)c4ccc(N[C@H](CCN5CCOCC5)CSc5ccccc5)c(S(=O)(=O)C(F)(F)F)c4)cc3)CC2)C1 [Navitoclax] (partner 0.5 µM)"
  parameterMeasured: "relative viability"
  testValue: 0.252
- compound: "Nc1ccn([C@@H]2O[C@H](CO)[C@@H](O)[C@@H]2O)c(=O)n1 [Cytarabine] + O=C(CCCCCCC(=O)Nc1ccccc1)NO [Vorinostat] (partner 1 µM)"
  parameterMeasured: "relative viability"
  testValue: 0.141

---

Property: relative viability; scope: individual compounds
# Tested on: NCI-H1792
# assayDetails: relative viability (nuclei count vs DMSO), 5 days (fraction); higher = more cells survive
# conditionSet: first compound 0.01581 µM

- compound: "Nc1ccn([C@@H]2O[C@H](CO)[C@@H](O)[C@@H]2O)c(=O)n1 [Cytarabine] + CS(=O)(=O)N1CCN(Cc2cc3nc(-c4cccc5[nH]ncc45)nc(N4CCOCC4)c3s2)CC1 [Pictilisib] (partner 1 µM)"
  experimentalTarget: "NCI-H1792"
  relative viability: 0.207
- compound: "Nc1ccn([C@@H]2O[C@H](CO)[C@@H](O)[C@@H]2O)c(=O)n1 [Cytarabine] + N=C(N)NC(=N)NCCc1ccccc1 [Phenformin] (partner 250 µM)"
  experimentalTarget: "NCI-H1792"
  relative viability: 0.107
- compound: "COc1cc2nccc(Oc3ccc(NC(=O)Nc4cc(C)on4)c(Cl)c3)c2cc1OC [Tivozanib] + CS(=O)(=O)CCNCc1ccc(-c2ccc3ncnc(Nc4ccc(OCc5cccc(F)c5)c(Cl)c4)c3c2)o1 [Lapatinib] (partner 2 µM)"
  experimentalTarget: "NCI-H1792"
  relative viability: 0.925
